Where these numbers come from: the GenesisPotency data set

- testSystem: Delta-type opioid receptor, Mus musculus (UniProt P32300)
- Sequence (P32300 whole entry): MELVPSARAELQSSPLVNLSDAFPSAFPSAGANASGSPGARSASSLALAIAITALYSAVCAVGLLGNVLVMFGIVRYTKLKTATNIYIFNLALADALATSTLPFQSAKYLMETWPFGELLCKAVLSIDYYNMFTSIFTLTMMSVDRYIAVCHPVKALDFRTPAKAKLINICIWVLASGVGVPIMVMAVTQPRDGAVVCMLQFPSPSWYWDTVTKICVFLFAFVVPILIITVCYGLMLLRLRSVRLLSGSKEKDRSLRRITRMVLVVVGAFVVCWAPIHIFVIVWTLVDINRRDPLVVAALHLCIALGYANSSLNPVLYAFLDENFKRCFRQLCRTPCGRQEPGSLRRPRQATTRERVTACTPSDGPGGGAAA
endpoint: IC50

>>> result("COc1cc2c(c(OC)c1OC)-c1cc3c(cc1C(=O)[C@@H]1COC(=O)[C@H]1C2)OCO3")
"> 10 µM"

====

The listing below reports pKi for compounds tested on Carbonic anhydrase 2, Homo sapiens (UniProt P00918).
pKi: −log10 of the molar value.
endpoint: pKi

>>> result("CC(C)[C@H]1NC(=O)[C@@H](C)[C@@H](CC=CCCC(=O)O)NC(=O)[C@@H](Cc2ccc(O)cc2)NC(=O)[C@@H](C)NC1=O")
"< 5.00"
>>> result("CC(C)[C@H]1NC(=O)[C@@H](C)[C@@H](CC=CCCC(N)=O)NC(=O)[C@@H](Cc2ccc(O)cc2)NC(=O)[C@@H](C)NC1=O")
"< 5.00"

====

- testSystem: Glycylpeptide N-tetradecanoyltransferase, Trypanosoma brucei brucei (strain 927/4 GUTat10.1)
pIC50: −log10 of the molar value.
endpoint: pIC50

>>> result("Cc1nn(C)c(C)c1N[SH+]([O-])c1c(Cl)cc(-c2ccc(OC(F)(F)F)cc2)cc1-c1ccc(OC(F)(F)F)cc1 (stereo unspecified)")
"< 4.00"
